Target: GIPR (CHO-K1-hGIPR cells) (Homo sapiens, UniProt P48546)
Construct: host or cells: CHO-K1
Sequence (P48546 22-466): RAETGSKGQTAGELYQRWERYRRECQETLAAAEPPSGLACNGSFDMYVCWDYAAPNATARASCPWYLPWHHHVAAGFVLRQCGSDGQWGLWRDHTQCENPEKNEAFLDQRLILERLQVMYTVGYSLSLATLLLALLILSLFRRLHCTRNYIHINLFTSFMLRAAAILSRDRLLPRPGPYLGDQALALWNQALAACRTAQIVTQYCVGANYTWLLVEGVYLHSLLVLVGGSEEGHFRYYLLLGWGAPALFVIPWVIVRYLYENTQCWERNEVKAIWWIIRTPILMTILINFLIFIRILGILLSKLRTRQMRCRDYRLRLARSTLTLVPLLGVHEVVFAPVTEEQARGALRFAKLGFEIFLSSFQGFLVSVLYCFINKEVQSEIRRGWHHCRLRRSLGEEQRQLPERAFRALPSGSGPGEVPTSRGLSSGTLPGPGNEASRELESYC
Assay: FACS binding assay
Conditions: competition with 20 nM GIP-057, 4° C. for 1 hour, read-out: pIC50 Category (converted)
*1 amine or outer side, *2 acyl side, *3 side chain or, on linkers, in order; H or OH if unused. Where a SMILES comes first, the peptide text is derived from it. Bridges are numbered along the chain shown (N, C = ends). [ ]: non-standard residue; d: D form. Trp(5-Cl) = N[C@@H](Cc1c[nH]c2ccc(Cl)cc12)C(=O)O; Pyridine(2,6-diCH2) = c1cc(C[*:1])nc(C[*:2])c1; Phe(2,4-Cl2) = N[C@@H](Cc1ccc(Cl)cc1Cl)C(=O)O; 1Nal = N[C@@H](Cc1cccc2ccccc12)C(=O)O; mXylylene = c1cc(C[*:1])cc(C[*:2])c1; Hyp = O=C(O)[C@@H]1C[C@@H](O)CN1; Cit = NC(=O)NCCC[C@H](N)C(=O)O; Thp = NC1(C(=O)O)CCOCC1; Aib = CC(C)(N)C(=O)O
Measured Parameter: IC50

Sample records with IC50:
CC[C@H](C)[C@@H]1NC(=O)[C@H](CC(C)C)NC(=O)C2(CCOCC2)NC(=O)[C@@H](NC(=O)[C@@H](CC(C)C)NC(=O)[C@H](CCC(=O)O)NC(=O)[C@@H]2C[C@@H](O)CN2C(=O)[C@H](Cc2c[nH]c3ccc(Cl)cc23)NC(=O)[C@H](Cc2c[nH]c3ccc(Cl)cc23)NC(=O)[C@H](CC(=O)O)NC(C)=O)CSCc2cccc(n2)CSC[C@@H](C(N)=O)NC1=O [GIP-379] (Ac-D[Trp(5-Cl)][Trp(5-Cl)][Hyp]E[dL]C[Thp]LIC-NH2; linker 7-11 via Pyridine(2,6-diCH2)) :: < 10 nM
CC[C@H](C)[C@@H]1NC(=O)[C@H](CC(C)C)NC(=O)[C@H](C)NC(=O)[C@@H](NC(=O)[C@H](CC(C)C)NC(=O)[C@H](CCC(=O)O)NC(=O)[C@@H]2CCCN2C(=O)[C@H](Cc2c[nH]c3ccccc23)NC(=O)[C@H](Cc2c[nH]c3ccccc23)NC(=O)[C@H](CC(=O)O)NC(=O)[C@H](Cc2ccc(O)cc2)NC(=O)[C@@H](N)CCSC)CSCc2cccc(c2)CSC[C@H](C(N)=O)NC1=O [GIP-310] (H-MYDWWPELCALI[dC]-NH2; linker 9-13 via mXylylene) :: 100 to 794 nM
CC[C@H](C)[C@@H]1NC(=O)[C@H](CC(C)C)NC(=O)C(C)(C)NC(=O)[C@@H](NC(=O)[C@H](CCCNC(N)=O)NC(=O)[C@H](CCC(=O)O)NC(=O)[C@@H]2CCCN2C(=O)[C@H](Cc2cccc3ccccc23)NC(=O)[C@H](Cc2c[nH]c3ccccc23)NC(=O)[C@H](CC(=O)O)NC(C)=O)CSCc2cccc(c2)CSC[C@@H](C(N)=O)NC1=O [GIP-347] (Ac-DW[1Nal]PE[Cit]C[Aib]LIC-NH2; linker 7-11 via mXylylene) :: > 1000 nM
CC[C@H](C)[C@@H]1NC(=O)[C@H](CC(C)C)NC(=O)C2(CCOCC2)NC(=O)[C@@H](NC(=O)[C@@H](CC(C)C)NC(=O)[C@@H](NC(=O)[C@@H]2C[C@@H](O)CN2C(=O)[C@H](Cc2c[nH]c3ccc(Cl)cc23)NC(=O)[C@H](Cc2c[nH]c3ccccc23)NC(=O)[C@H](CC(=O)O)NC(C)=O)C(C)C)CSCc2cccc(n2)CSC[C@@H](C(N)=O)NC1=O [GIP-385] (Ac-DW[Trp(5-Cl)][Hyp]V[dL]C[Thp]LIC-NH2; linker 7-11 via Pyridine(2,6-diCH2)) :: < 10 nM

Now for another entry.
Exam item: // IC50 lookup, key: CC[C@H](C)[C@@H]1NC(=O)[C@H](CC(C)C)NC(=O)C2(CCOCC2)NC(=O)[C@@H](NC(=O)[C@@H](CC(C)C)NC(=O)[C@H](CCC(=O)O)NC(=O)[C@@H]2C[C@@H](O)CN2C(=O)[C@H](Cc2ccc(Cl)cc2Cl)NC(=O)[C@H](Cc2c[nH]c3ccccc23)NC(=O)[C@H](CC(=O)O)NC(C)=O)CSCc2cccc(n2)CSC[C@@H](C(N)=O)NC1=O [GIP-351] (Ac-DW[Phe(2,4-Cl2)][Hyp]E[dL]C[Thp]LIC-NH2; linker 7-11 via Pyridine(2,6-diCH2))
Marked response: > 1000 nM
